Target: full-length recombinant rat vitamin D receptor (Rattus norvegicus, UniProt P13053)
Construct: Full-length recombinant rat receptor was expressed in E. coli BL21 (DE3) Codon Plus RIL cells; histidine tag (C)
Sequence (P13053 whole entry): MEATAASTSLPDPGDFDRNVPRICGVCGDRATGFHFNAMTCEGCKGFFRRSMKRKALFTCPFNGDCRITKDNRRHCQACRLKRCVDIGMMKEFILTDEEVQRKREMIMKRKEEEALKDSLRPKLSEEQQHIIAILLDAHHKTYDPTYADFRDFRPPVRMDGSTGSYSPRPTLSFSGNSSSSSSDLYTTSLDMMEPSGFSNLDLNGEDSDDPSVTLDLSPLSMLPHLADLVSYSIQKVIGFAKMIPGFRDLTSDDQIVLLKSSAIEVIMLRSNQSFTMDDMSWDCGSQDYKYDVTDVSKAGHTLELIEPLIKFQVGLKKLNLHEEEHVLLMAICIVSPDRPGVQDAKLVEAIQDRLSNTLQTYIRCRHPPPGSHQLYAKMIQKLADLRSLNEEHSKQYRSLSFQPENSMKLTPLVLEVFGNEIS
Experiment: Vitamin D receptor binding, competition with [3H]-1,25(OH)2D3
Settings: full-length recombinant rat VDR; FIG. 1
readout.type: Ki (pM)
Expressed in pM, but write only the number.

Request: Any idea what Ki was measured for C=C1[C@H](O)CC(=C/C=C2\CCC[C@]3(C)/C(=C(/C)CCCC(C)(C)O)CC[C@@H]23)C[C@H]1O ?
Response: 50
